// reported % UTC (Yap1 mRNA) for each item listed
- System: Yap1 mRNA
- ASSAY NAME: Dose-dependent inhibition of human Yap1 in SNU-449 cells (Example 9, RTS36584)
- Format: cell-based
- APPLIED CONDITIONS: 31.3 nM, free uptake, approximately 48 hours
Strand notation (5' to 3'): a small letter for the sugar, then the base; units joined by * are phosphorothioate-linked, units joined directly phosphodiester-linked; [ ] holds rarer units or linkages, { } end groups; capitals alone tell only the bases. e = 2'-O-(2-methoxyethyl) (MOE); k = constrained ethyl (cEt); [5mC] = 5-methylcytosine; d = 2'-deoxy (DNA)
All answers are understood in % UTC, so give the number only.

These solved cases illustrate the format of a correct answer.
Field % UTC (Yap1 mRNA) (entry 1197217 (kT*kT*kA*dA*dA*dG*dT*dG*dT*dA*dT*dG*dT*k[5mC]*kA*kG) [compound 1197217] ) reads 66

Field % UTC (Yap1 mRNA) (entry 1198728 (TATTAGAGTATGTGGC; modified gapmer, further chemistry not given here) [compound 1198728] ) reads 51

Field % UTC (Yap1 mRNA) (entry 1198895 (kG*kG*dA*dA*dA*dT*dT*dG*dT*d[5mC]*dT*k[5mC]*dA*kT*dG*k[5mC]; antisense) [compound 1198895] ) reads 62

Field % UTC (Yap1 mRNA) (entry 1198857 (kT*k[5mC]*dT*dT*dA*dT*dA*dT*dG*dG*dT*kT*eT*kT*eG*kT) [compound 1198857] ) reads 78

Continuing:
Field % UTC (Yap1 mRNA) (entry 1198524 (kT*kG*dT*dA*dT*dG*dT*d[5mC]*dA*dG*dA*eA*kG*eA*kG*eT; antisense) [compound 1198524] ) reads 50

Field % UTC (Yap1 mRNA) (entry 1198438 (kT*dG*dT*dA*dT*dG*dT*d[5mC]*dA*dG*dA*kA*eG*kA*eG*kT) [compound 1198438] ) reads 62

Field % UTC (Yap1 mRNA) (entry 1198804 (kT*kG*dT*d[5mC]*dT*d[5mC]*dA*dT*dG*d[5mC]*d[5mC]*kT*eT*kA*eT*kA; antisense) [compound 1198804] ) reads 71

---

- Tested on: Yap1 mRNA
- ASSAY NAME: Dose-dependent inhibition of human Yap1 in SNU-449 cells (Example 9, RTS36584)
- Format: cell-based
- APPLIED CONDITIONS: 31.3 nM, free uptake, approximately 48 hours
Strand notation (5' to 3'): a small letter for the sugar, then the base; units joined by * are phosphorothioate-linked, units joined directly phosphodiester-linked; [ ] holds rarer units or linkages, { } end groups; capitals alone tell only the bases. e = 2'-O-(2-methoxyethyl) (MOE); k = constrained ethyl (cEt); [5mC] = 5-methylcytosine; d = 2'-deoxy (DNA); m = 2'-O-methyl
Quick rule: % UTC (Yap1 mRNA) of at least 60 % UTC means met, below that means not met.

Solved entries:
Query: Reported % UTC (Yap1 mRNA) reaches at least 60 % UTC for 1074461 (kG*kA*kA*dA*dT*dT*dG*dT*d[5mC]*dT*d[5mC]*dA*dT*kG*k[5mC]*k[5mC]) [compound 1074461] ?
Response: met

Query: Reported % UTC (Yap1 mRNA) reaches at least 60 % UTC for 1197235 (kA*kT*kT*dA*mG*dA*dG*dT*dA*dT*dG*dT*dG*kG*k[5mC]*kA; antisense) [compound 1197235] ?
Response: met

Query: Reported % UTC (Yap1 mRNA) reaches at least 60 % UTC for 1198466 (kA*kG*dA*dG*dT*dA*dT*dG*dT*dG*dG*e[5mC]*kA*eA*kT*eA; antisense) [compound 1198466] ?
Response: met

Query: Reported % UTC (Yap1 mRNA) reaches at least 60 % UTC for 1197214 (kA*kG*kT*dG*dT*dA*dT*dG*dT*d[5mC]*dA*dG*dA*kA*kG*kA; antisense) [compound 1197214] ?
Response: met

Query: Reported % UTC (Yap1 mRNA) reaches at least 60 % UTC for 1198578 (GCTTTGGAAGATCTGA; modified gapmer, chemistry not fully specified) [compound 1198578] ?
Response: met

Query: Reported % UTC (Yap1 mRNA) reaches at least 60 % UTC for 1198815 (kT*kA*dG*dA*dG*dT*dA*dT*dG*dT*dG*kG*e[5mC]*kA*eA*kT; antisense) [compound 1198815] ?
Response: met

Query: Reported % UTC (Yap1 mRNA) reaches at least 60 % UTC for 1198371 (kA*dT*dT*dG*dT*d[5mC]*dT*d[5mC]*dA*dT*dG*k[5mC]*e[5mC]*kT*eT*kA; antisense) [compound 1198371] ?
Response: met

Query: Reported % UTC (Yap1 mRNA) reaches at least 60 % UTC for 1198698 (kA*kA*dG*dT*dG*dT*dA*dT*dG*dT*d[5mC]*dA*kG*eA*kA*eG) [compound 1198698] ?
Response: not met

Query: Reported % UTC (Yap1 mRNA) reaches at least 60 % UTC for 1198935 (kG*kA*dT*dT*dT*dA*dG*dG*dA*dT*dG*k[5mC]*dA*kT*dG*kG; antisense) [compound 1198935] ?
Response: not met

Query: Reported % UTC (Yap1 mRNA) reaches at least 60 % UTC for 1197193 (AGGATGCATGGTTTTT; chemistry not fully specified) [compound 1197193] ?
Response: met

Continuing:
Query: Reported % UTC (Yap1 mRNA) reaches at least 60 % UTC for 1198439 (AGTGTATGTCAGAAGA; sugar, 5-methylcytosine, phosphorothioate modifications, further chemistry not given here) [compound 1198439] ?
Response: not met

Query: Reported % UTC (Yap1 mRNA) reaches at least 60 % UTC for 1097247 (kT*kA*kA*dA*dG*dT*dG*dT*dA*dT*dG*dT*d[5mC]*kA*kG*kA; antisense) [compound 1097247] ?
Response: not met

Values were extracted from patent US11214803B2.
